System: RPMI-8226 leukemia
Assay: NCI tumour cell line growth inhibition, 48 h; in the data active = GI50 below about 0.43 µM; inactive = the rest
Possible outcomes: active, inactive

INSERT INTO results (compound, assigned_class) VALUES
  ('Fc1ccc(C2C3CCOc4c(ccc5ccccc45)C3=NN2c2ccccc2)cc1 (stereo not given)', 'inactive'),
  ('N=C1C(c2nc3ccccc3s2)=C(O)CN1c1cc(Cl)cc(Cl)c1', 'inactive'),
  ('CCN(CCO)CCCOc1ccc2c(Nc3cc(CC(=O)Nc4cccc(F)c4)[nH]n3)ncnc2c1', 'inactive'),
  ('Cc1cc(C#Cc2ccccc2)ccc1-n1c(/C=C/c2cc(O)ccc2O)nc2ccccc2c1=O', 'inactive'),
  ('Cn1cc(C2=C(c3c(S(C)=O)n(C)c4ccccc34)C(=O)NC2=O)c2ccccc21 (stereo not given)', 'inactive'),
  ('O=C(c1ccco1)c1c(C(F)(F)F)n([O-])c2ccc(F)cc2[n+]1=O', 'active'),
  ('N[C@@H](CSSC[C@H](N)C(=O)N1CCn2cc(-c3ccccc3)nc2[C@@H]1CC1CCCCC1)C(=O)N1CCn2cc(-c3ccccc3)nc2[C@@H]1CC1CCCCC1', 'inactive'),
  ('Fc1ccc(-c2nn3c(COc4ccc(Cl)cc4Cl)nnc3s2)cc1Oc1ccccc1', 'inactive'),
  ('Cc1cn2c(/C=C3/C(=O)Nc4ccc(Cl)cc43)c(C)nc2s1', 'active'),
  ('CC[C@@]1(O)C(=O)NCc2c1cc1n(c2=O)Cc2cc3c(NC(C)=O)cccc3nc2-1', 'inactive');

---

Tested on: OVCAR-8 ovarian
Assay: NCI tumour cell line growth inhibition, 48 h
Where a SMILES comes first, the peptide text is derived from it. [ ]: non-standard residue; d: D form. Hiv = CC(C)[C@H](O)C(=O)O
Recorded measurements of TGI, one per entry
MEASUREMENT NAME: TGI

INSERT INTO results (molecule, tested_system, reported) VALUES
  ('c1c2c(cc3c1OCO3)-c1cc3ccc4c(c3c[n+]1CC2)OCO4', 'OVCAR-8 ovarian', '4.13 µM'),
  ('CC1C(=O)C(C)C(c2ccco2)N(N=O)C1c1ccco1 (stereo not given)', 'OVCAR-8 ovarian', '> 100 µM'),
  ('Oc1ccc(-c2nc3cc(F)ccc3s2)cc1', 'OVCAR-8 ovarian', '> 100 µM'),
  ('CCn1c(O)c(C=Nc2ccccc2)s/c1=N/Nc1nc(-c2ccc(O)c(O)c2)cs1', 'OVCAR-8 ovarian', '> 100 µM'),
  ('COc1c(C)c(O)c2c(c1C)OC(c1ccccc1)CC2=O (stereo not given)', 'OVCAR-8 ovarian', '> 100 µM'),
  ('O=C1N=C(Nc2nc(-c3csc(NC4=NC(=O)/C(=C\c5ccc(Cl)cc5)S4)n3)cs2)S/C1=C/c1ccc(Cl)cc1', 'OVCAR-8 ovarian', '30.2 µM'),
  ('N#Cc1c(N)c(C#N)c2c(c1-c1ccc(Cl)cc1)COc1ccc(F)cc1-2', 'OVCAR-8 ovarian', '> 50 µM'),
  ('COC(=O)C1=C(\O)C[C@@]2(C)CC[C@@H](C(=O)OC)C2C/C=C\1C(=O)OC (stereo not given in full)', 'OVCAR-8 ovarian', '> 100 µM'),
  ('N[C@@H](CSSC[C@H](N)C(=O)N1CCn2cc(-c3ccccc3)nc2[C@@H]1CC1CCCCC1)C(=O)N1CCn2cc(-c3ccccc3)nc2[C@@H]1CC1CCCCC1', 'OVCAR-8 ovarian', '5.76 µM'),
  ('COC1=CC(=O)C2C(C1=O)C(c1ccc(Cl)cc1)[C@@H]2C (stereo not given in full)', 'OVCAR-8 ovarian', '67.4 µM'),
  ('O=c1c2ccccc2nc2sc(/N=C/C=C/c3ccccc3)nn12', 'OVCAR-8 ovarian', '> 100 µM'),
  ('COc1ccc2nc3cc(Cl)ccc3c(Nc3cc(C(C)C)c(O)cc3C)c2c1', 'OVCAR-8 ovarian', '4.47 µM'),
  ('N#CC1CCCCC1NC1(C#N)CCCCC1 (stereo not given)', 'OVCAR-8 ovarian', '> 100 µM'),
  ('Cc1ccc(S(=O)(=O)CC2(Br)CCc3ccccc3C2=O)cc1 (stereo not given)', 'OVCAR-8 ovarian', '64.8 µM'),
  ('CC1(C)OC(=O)C(=Cc2ccc([N+](=O)[O-])s2)C(=O)O1', 'OVCAR-8 ovarian', '31.3 µM'),
  ('CC1COCCN1CC#CCOC(=O)c1cc2ccccc2oc1=O (stereo not given)', 'OVCAR-8 ovarian', '> 100 µM'),
  ('NCCNCCNc1ccc(NCCNCCN)c2c1C(=O)c1c(O)ccc(O)c1C2=O', 'OVCAR-8 ovarian', '> 100 µM'),
  ('CCOC(=O)Nc1cc2c(c(N)n1)N=C(c1ccc3ccccc3c1)CN2', 'OVCAR-8 ovarian', '10.8 µM'),
  ('COC(=O)/C(=N/NC(C)(C)C)C(C(=O)OC)C(=O)C(=O)Nc1nc2ccc([N+](=O)[O-])cc2s1 (stereo not given)', 'OVCAR-8 ovarian', '> 100 µM'),
  ('O=C1C(Br)=CC2(C=C1Br)CCNc1c(O)c3c4c(c12)=NCCC=4C=N3', 'OVCAR-8 ovarian', '0.511 µM'),
  ('CC(C)COC(c1ccc2c(c1)OCO2)C(C)Br (stereo not given)', 'OVCAR-8 ovarian', '> 100 µM'),
  ('Cc1ccc(S(=O)(=O)N/N=C2\CC(C)OC3=C2CCCCCC3)cc1 (stereo not given)', 'OVCAR-8 ovarian', '45.2 µM'),
  ('COc1c2ccccc2c(O)c2c(=O)ccn(C)c12', 'OVCAR-8 ovarian', '38.1 µM'),
  ('CCCCC(C(=O)CCC(=O)Nc1ccc(Cl)cc1)C(=O)C(C)C (stereo not given)', 'OVCAR-8 ovarian', '> 100 µM'),
  ('N=c1oc2ccc(Cl)cc2cc1C(N)=O', 'OVCAR-8 ovarian', '> 100 µM'),
  ('CC(C)[C@@H]1OC(=O)[C@@H](C)NC(=O)[C@@H]2CCCN2C1=O (cyclo([Hiv]-Pro-[dA]))', 'OVCAR-8 ovarian', '> 100 µM'),
  ('Clc1ccc(-c2nc3ccc4ccccc4c3c3c2CCCC3)cc1', 'OVCAR-8 ovarian', '> 100 µM'),
  ('COc1cccc(/C=C\c2ccnc3ccccc23)c1', 'OVCAR-8 ovarian', '> 10 µM'),
  ('COc1cc2c(cc1OC)C(=O)/C(=C/c1cc(Cl)cc(Cl)c1)C2', 'OVCAR-8 ovarian', '> 100 µM'),
  ('CC1(C=O)CCC23COC4(CCC5C6(C)CCC(OC7OCC(OC8OC(CO)C(O)C(OC9OC(CO)C(O)C(O)C9O)C8OC8OCC(O)C(O)C8O)C(O)C7OC7OC(CO)C(O)C(O)C7O)C(C)(C)C6CCC5(C)C4(C)CC2O)C3C1 (stereo not given)', 'OVCAR-8 ovarian', '1.48 µM'),
  ('O=C(Nc1ccccc1)Nc1ccc(Cl)c(Cl)c1', 'OVCAR-8 ovarian', '79.3 µM'),
  ('CCOC(=O)C(NC(=O)c1ccccc1)(Nc1ccc(S(=O)(=O)Nc2cc(C)nc(C)n2)cc1)C(F)(F)F (stereo not given)', 'OVCAR-8 ovarian', '> 100 µM'),
  ('Cc1c/c(=N/NC(=O)c2ccncc2)n2nc(N)sc2n1', 'OVCAR-8 ovarian', '> 100 µM'),
  ('N=C1C(c2nc3ccccc3s2)=C(O)CN1c1cc(Cl)cc(Cl)c1', 'OVCAR-8 ovarian', '> 100 µM'),
  ('CCCCCCCCCCCC(=O)OC(COC(N)=O)COc1ccc(Cl)cc1 (stereo not given)', 'OVCAR-8 ovarian', '33.6 µM'),
  ('O=C(O)c1nc2ccccc2nc1NCc1ccc(F)cc1', 'OVCAR-8 ovarian', '> 100 µM'),
  ('OCc1ccc(N(Cc2ccc(F)cc2)CC2CCC2)cc1Cl', 'OVCAR-8 ovarian', '32.4 µM'),
  ('CC/C(=N/N=C(N)N)c1ccc(NC(=O)Nc2ccc(/C(CC)=N/N=C(N)N)cc2)cc1', 'OVCAR-8 ovarian', '> 100 µM'),
  ('O=C(O)COc1ccc(C(=O)/C(SS/C(C(=O)c2ccc(OCC(=O)O)c(Cl)c2Cl)=C2\C=C(c3ccccc3Cl)SS2)=C2/C=C(c3ccccc3Cl)SS2)c(Cl)c1Cl', 'OVCAR-8 ovarian', '> 100 µM'),
  ('CC1OC(OCC2OC(Oc3ccc(C4CC(=O)c5c(O)cc(O)cc5O4)cc3O)C(O)C(O)C2O)C(O)C(O)C1O (stereo not given)', 'OVCAR-8 ovarian', '> 100 µM');
